system.under.test: PI3K-γ (Homo sapiens, UniProt P48736)
Sequence (P48736 whole entry, species assumed): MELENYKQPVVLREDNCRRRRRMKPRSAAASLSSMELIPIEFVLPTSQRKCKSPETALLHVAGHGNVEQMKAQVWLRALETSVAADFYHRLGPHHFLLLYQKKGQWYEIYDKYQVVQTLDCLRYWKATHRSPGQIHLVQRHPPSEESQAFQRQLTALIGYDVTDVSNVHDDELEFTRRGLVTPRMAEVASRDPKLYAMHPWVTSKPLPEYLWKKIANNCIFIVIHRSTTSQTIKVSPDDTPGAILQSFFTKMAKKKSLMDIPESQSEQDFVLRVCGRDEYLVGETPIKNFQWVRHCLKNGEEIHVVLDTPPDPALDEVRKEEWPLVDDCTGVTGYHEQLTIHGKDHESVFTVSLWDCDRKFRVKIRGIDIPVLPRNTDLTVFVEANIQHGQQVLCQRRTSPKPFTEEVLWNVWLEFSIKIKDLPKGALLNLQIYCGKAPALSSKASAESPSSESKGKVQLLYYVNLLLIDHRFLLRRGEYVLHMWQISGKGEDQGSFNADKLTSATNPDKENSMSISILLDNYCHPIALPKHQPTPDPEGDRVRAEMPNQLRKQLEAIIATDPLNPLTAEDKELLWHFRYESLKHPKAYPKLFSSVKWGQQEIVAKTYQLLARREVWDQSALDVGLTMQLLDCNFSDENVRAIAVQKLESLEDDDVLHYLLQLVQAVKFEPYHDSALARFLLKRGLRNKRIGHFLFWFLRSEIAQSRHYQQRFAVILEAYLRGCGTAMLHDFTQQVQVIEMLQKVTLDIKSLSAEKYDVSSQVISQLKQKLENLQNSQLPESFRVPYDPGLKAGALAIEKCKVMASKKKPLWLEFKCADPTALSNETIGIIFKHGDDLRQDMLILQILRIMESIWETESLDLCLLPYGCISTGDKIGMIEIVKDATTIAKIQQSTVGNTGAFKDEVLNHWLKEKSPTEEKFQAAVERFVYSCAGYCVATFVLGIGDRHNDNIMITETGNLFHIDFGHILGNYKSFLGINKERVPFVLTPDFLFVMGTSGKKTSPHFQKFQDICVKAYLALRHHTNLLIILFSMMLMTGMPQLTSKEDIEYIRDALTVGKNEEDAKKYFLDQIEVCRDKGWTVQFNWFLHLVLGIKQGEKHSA
test.details: PI3K-gamma fluorescence polarization assay
cond: read-out: IC50 PI3Kγ
Collected pIC50 values appear next to each entry.
Expect pIC50 as a plain number equal to -log10 of the molar concentration.

Some compounds with recorded pIC50:
In [3]: df
Out[3]:
                                   compound                      system_under_test  measured
0  CC(C)Nc1nc(-c2ccc(NC(=O)Nc3ccc(OCCN(C)C)cc3)cc2)nc(N2CC3CCC(C2)O3)n1 [Example 220]  PI3K-γ (Homo sapiens, UniProt P48736)      5.55
1  O=C(Nc1ccc(C(=O)N2CCCC2)cc1)Nc1ccc(-c2nc(N3CCCC3)nc(N3CCOCC3)n2)cc1 [Example 612]  PI3K-γ (Homo sapiens, UniProt P48736)      7.17
2  O=C(Nc1ccc(-c2nc(N3CCSCC3)nc(N3C4CCC3COC4)n2)cc1)Nc1cccnc1 [Example 392]  PI3K-γ (Homo sapiens, UniProt P48736)      5.56
3  CN1CCN(c2nc(-c3ccc(NC(=O)Nc4ccncc4)cc3)nc(N3CC4CCC(C3)O4)n2)CC1 [Example 108]  PI3K-γ (Homo sapiens, UniProt P48736)      5.38
4  CN1C2CCC1CC(Oc1nc(-c3ccc(NC(=O)Nc4ccncc4)cc3)nc(N3CCOCC3)n1)C2 (centres unmarked) [Example 102]  PI3K-γ (Homo sapiens, UniProt P48736)      7.08

**Q:** pIC50 for CCN1CCN(C(=O)c2ccc(NC(=O)Nc3ccc(-c4nc(N5CCOCC5)nc(N5CCCN(C(C)C)CC5)n4)cc3)cc2)CC1 [Example 662] ?
**A:** 6.71

**Q:** # iterate: COC(=O)c1ccc(NC(=O)Nc2ccc(-c3nc(N4CCOCC4)nc(N4CCN(C(=O)N(C)C)CC4)n3)cc2)cc1 [Example 641]
**A:** 6.56

**Q:** What do you have for O=C(Nc1ccc(-c2nc(NC3CNC3)nc(N3CCOCC3)n2)cc1)Nc1cccnc1 [Example 18] ?
**A:** 7.15

**Q:** Try the compound O=C(Nc1ccc(CN2CCNCC2)cc1)Nc1ccc(-c2nc(N3C4CCC3COC4)nc(N3C4CCC3COC4)n2)cc1 [Example 366]
**A:** 5.52

**Q:** Next: NCc1ccc(NC(=O)Nc2ccc(-c3nc(N4C5CCC4COC5)nc(N4C5CCC4COC5)n3)cc2)cc1 [Example 368]
**A:** 5.71

**Q:** # repeat for CN1CCN(C(=O)c2ccc(NC(=O)Nc3ccc(-c4nc(N5CCOCC5)nc(N5C6CCCC5COC6)n4)cc3)cc2)CC1 [Example 792]
**A:** 7.45

###

system.under.test: PI3K-α (Homo sapiens)
Sequence (P42336 whole entry, species assumed): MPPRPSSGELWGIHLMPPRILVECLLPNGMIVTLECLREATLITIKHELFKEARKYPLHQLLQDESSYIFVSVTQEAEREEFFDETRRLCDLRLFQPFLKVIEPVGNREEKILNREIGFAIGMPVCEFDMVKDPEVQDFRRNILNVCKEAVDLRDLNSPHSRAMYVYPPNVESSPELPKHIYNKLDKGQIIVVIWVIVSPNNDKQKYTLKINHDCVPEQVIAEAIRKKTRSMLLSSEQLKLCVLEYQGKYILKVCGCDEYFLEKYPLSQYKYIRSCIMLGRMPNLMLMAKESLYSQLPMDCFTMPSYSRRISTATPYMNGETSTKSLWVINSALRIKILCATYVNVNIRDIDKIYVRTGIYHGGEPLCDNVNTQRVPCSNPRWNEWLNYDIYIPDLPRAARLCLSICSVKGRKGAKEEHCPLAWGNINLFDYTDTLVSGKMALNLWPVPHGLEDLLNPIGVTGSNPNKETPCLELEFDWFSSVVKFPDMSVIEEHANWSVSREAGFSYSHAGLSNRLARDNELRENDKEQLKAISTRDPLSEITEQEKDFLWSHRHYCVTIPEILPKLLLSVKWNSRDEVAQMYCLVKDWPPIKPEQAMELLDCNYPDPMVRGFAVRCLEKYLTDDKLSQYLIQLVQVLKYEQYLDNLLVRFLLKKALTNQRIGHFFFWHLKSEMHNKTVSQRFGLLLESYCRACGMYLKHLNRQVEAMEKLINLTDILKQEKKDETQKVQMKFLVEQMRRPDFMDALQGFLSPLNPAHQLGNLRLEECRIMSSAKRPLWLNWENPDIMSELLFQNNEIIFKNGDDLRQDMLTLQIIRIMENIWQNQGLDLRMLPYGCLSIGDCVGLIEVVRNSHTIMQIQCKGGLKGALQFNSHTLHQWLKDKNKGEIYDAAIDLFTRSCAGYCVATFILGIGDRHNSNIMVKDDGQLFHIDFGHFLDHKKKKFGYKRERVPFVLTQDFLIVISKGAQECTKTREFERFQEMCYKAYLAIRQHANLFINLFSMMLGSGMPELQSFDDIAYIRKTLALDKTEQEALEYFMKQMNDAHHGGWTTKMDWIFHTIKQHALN
Sequence (P27986 whole entry partner, species assumed): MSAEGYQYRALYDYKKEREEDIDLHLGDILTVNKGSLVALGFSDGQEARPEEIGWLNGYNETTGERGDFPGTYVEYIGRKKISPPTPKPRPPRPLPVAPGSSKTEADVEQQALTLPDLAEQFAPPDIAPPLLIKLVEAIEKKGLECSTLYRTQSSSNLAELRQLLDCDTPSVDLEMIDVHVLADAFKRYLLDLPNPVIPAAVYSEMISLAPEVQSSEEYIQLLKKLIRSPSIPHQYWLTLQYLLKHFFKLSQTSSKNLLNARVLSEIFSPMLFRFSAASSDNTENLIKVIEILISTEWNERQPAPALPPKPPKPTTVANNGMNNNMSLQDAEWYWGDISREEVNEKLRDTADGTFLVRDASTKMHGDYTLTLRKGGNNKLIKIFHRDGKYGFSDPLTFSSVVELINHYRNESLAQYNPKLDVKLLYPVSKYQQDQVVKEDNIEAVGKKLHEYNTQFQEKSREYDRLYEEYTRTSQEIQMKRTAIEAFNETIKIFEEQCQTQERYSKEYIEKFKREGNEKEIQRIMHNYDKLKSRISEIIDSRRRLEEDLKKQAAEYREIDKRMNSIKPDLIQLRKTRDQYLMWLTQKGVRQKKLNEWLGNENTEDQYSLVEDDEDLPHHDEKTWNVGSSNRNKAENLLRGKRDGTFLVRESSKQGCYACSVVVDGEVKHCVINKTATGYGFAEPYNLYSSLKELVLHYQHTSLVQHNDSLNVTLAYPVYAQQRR
test.details: PI3K-alpha fluorescence polarization assay
cond: read-out: IC50 PI3Kα; listed as 506
readout.label: pIC50
# pIC50 = -log10(concentration in molar units)

**Q:** Which pIC50 value is on record for CN(C)CCN(C)C(=O)c1ccc(NC(=O)Nc2ccc(-c3nc(C4=CCOCC4)nc(N4CCOCC4)n3)cc2)cc1 [Example 240] ?
**A:** 9.52

###

system.under.test: PI3K-γ (Homo sapiens, UniProt P48736)
test.details: PI3K-gamma fluorescence polarization assay
cond: read-out: IC50 PI3Kγ; listed as 717
readout.label: IC50
# number then unit; no other words

**Q:** Requested read-out: IC50. Entry: O=C(Nc1ccncc1)Nc1ccc(-c2nc(N3C4CCC3COC4)nc(N3C4CCC3COC4)n2)cc1 [Example 224]
**A:** 5.87 µM

###

system.under.test: PI3K-γ (Homo sapiens, UniProt P48736)
test.details: PI3K-gamma fluorescence polarization assay
cond: read-out: IC50 PI3Kγ
Listed next: entries and their corresponding pIC50.
Keep in mind that pIC50 stands for -log10 of concentration in molar terms.

Some solved entries appear below for comparison.
                                   compound  measured
0  O=C(Nc1ccncc1)Nc1ccc(-c2nc(N3CC4CCC(C3)O4)nc(N3CC4CCC(C3)O4)n2)cc1      5.45
1  O=C(Nc1ccc(C(=O)NCCN2CCCCC2)cc1)Nc1ccc(-c2nc(N3CCOCC3)nc(N3C4CCCC3COC4)n2)cc1      7.15
2  O=C(Nc1ccc(C(=O)N2CCNCC2)cc1)Nc1ccc(-c2nc(N3CCOCC3)nc(N3C4COCC3COC4)n2)cc1      8.02
3  CN(C)CCCc1nc(-c2ccc(NC(=O)Nc3ccncc3)cc2)nc(N2CCOCC2)n1      6.21
4  O=C(Nc1ccc(C(=O)N2CCC(N3CCCC3)CC2)cc1)Nc1ccc(-c2nc(N3CCOCC3)nc(N3C4COCC3COC4)n2)cc1      7.53

**Q:** Return reported pIC50; argument: `CCc1nc(-c2ccc(NC(=O)Nc3ccc(N4CCN(C)CC4)cc3)cc2)nc(N2CCOCC2)n1`
**A:** 7.46

**Q:** Next entry: `CCNC(=O)N1CCC(Oc2nc(-c3ccc(NC(=O)Nc4ccncc4)cc3)nc(N3CCOCC3)n2)CC1`
**A:** 7.08

**Q:** How about this compound: `C[C@H]1COCCN1c1nc(-c2ccc(NC(=O)Nc3ccc(C(=O)NCCN4CCCC4)cc3)cc2)nc(N2CCOCC2)n1`
**A:** 7.30

**Q:** Item: `O=C(Nc1ccc(-c2nc(OCC3CCNCC3)nc(N3CC4CCC(C3)O4)n2)cc1)Nc1cccnc1`
**A:** 4.96

**Q:** Follow-up entry: `CNC(=O)Nc1ccc(-c2nc(N3CC4CCC(C3)O4)nc(N3CC4CNCC(C3)O4)n2)cc1`
**A:** 5.02

**Q:** Another compound: `CCc1nc(-c2ccc(NC(=O)Nc3ccc(C(=O)NCc4ccncc4)cc3)cc2)nc(N2CCOCC2)n1`
**A:** 6.94

**Q:** Now try `CC(C)Nc1nc(-c2ccc(NC(=O)Nc3ccc(CN4CCCC4)cc3)cc2)nc(N2C3CCC2COC3)n1` .
**A:** 5.44

**Q:** Try this compound too: `CC(C)c1nc(-c2ccc(NC(=O)Nc3ccc(C(=O)O)cc3)cc2)nc(N2CCOCC2)n1`
**A:** 7.24

**Q:** Here is the next compound: `O=C(Nc1ccncc1)Nc1ccc(-c2nc(N3CCOCC3)nc(N3CC4CNCC(C3)O4)n2)cc1`
**A:** 6.78

**Q:** Then what about the compound `O=C(Nc1ccncc1)Nc1ccc(-c2nc(N3CCC(NCCN4CCOCC4)CC3)nc(N3CC4CCC(C3)O4)n2)cc1` ?
**A:** 5.02

**Q:** Then what about the compound `O=C(Nc1ccc(C(=O)O)cc1)Nc1ccc(-c2nc(N3CCCCC3)nc(N3CCOCC3)n2)cc1` ?
**A:** 6.84

**Q:** Moving on to CCN1CCN(C(=O)c2ccc(NC(=O)Nc3ccc(-c4nc(N5CCOCC5)nc(N5CC6CCC5CO6)n4)cc3)cc2)CC1 (stereo not shown)
**A:** 7.52

**Q:** Consider next the compound `CC(C)N1CCN(C(=O)c2ccc(NC(=O)Nc3ccc(-c4nc(N5CCOC[C@@H]5C)nc(N5CCOC[C@@H]5C)n4)cc3)cc2)CC1` in the same way.
**A:** 7.49

**Q:** Again, but for `C[C@H]1COCCN1c1nc(-c2ccc(NC(=O)Nc3ccc(C(=O)N(C)CCN(C)C)cc3)cc2)nc(N2CCOC[C@@H]2C)n1`
**A:** 7.78

**Q:** Next compound up: `CCN1CCN(c2ccc(NC(=O)Nc3ccc(-c4nc(N5CCOC[C@H]5C)nc(N5CCOC[C@H]5C)n4)cc3)cc2)CC1`
**A:** 5.55

**Q:** Ok, now `O=C(Nc1ccc(C(=O)N2CCC(N3CCCC3)CC2)cc1)Nc1ccc(-c2nc(N3CCOCC3)nc(N3C4CCCC3COC4)n2)cc1`
**A:** 7.45

**Q:** Same read-out for `CN(C)C(=O)c1ccc(NC(=O)Nc2ccc(-c3nc(N4CCOCC4)nc(N4C5CCC4COC5)n3)cc2)cc1` ?
**A:** 7.15

**Q:** Then what about the compound `C[C@H]1COCCN1c1nc(-c2ccc(NC(=O)Nc3ccc(C(=O)NCCN(C)C)cc3)cc2)nc(N2CCOC[C@@H]2C)n1` ?
**A:** 7.13

**Q:** Next compound: `CN(C)CCN(C)C(=O)c1ccc(NC(=O)Nc2ccc(-c3nc(C4=CCOCC4)nc(N4CCOCC4)n3)cc2)cc1`
**A:** 8.22

###

system.under.test: PI3K-γ (Homo sapiens)
test.details: PI3K-gamma fluorescence polarization assay
cond: read-out: IC50 PI3Kγ; listed as 731
readout.label: pIC50
// pIC50 is dimensionless: -log10 of concentration (M)

**Q:** PI3K-γ (Homo sapiens) / pIC50 / CN(C)CCCc1nc(-c2ccc(NC(=O)Nc3ccncc3)cc2)nc(N2CCOCC2)n1 [Example 274] : value?
**A:** 6.38
